- assay remarks: soluble on expression in E. coli; label from the status in PepcDB or PDB records

macromolecule sequence: IENYHVEEAENDLTQLANKVAVILENHEDQALARSITWELADNLTSIAIIQDEKNHWYSPNDKNRLSSITVEQIQHDKDLNKALKDHKKVSKRTGLSDTDTDNERLIVGVPYEKDGKKGMVFLSQSLLAVKDTTKHTTR
soluble on expression in E. coli: not soluble

macromolecule sequence: MQVFCFTPKGEVVKLPRGATPIDFAFAIHTRIGMACVGAKVDHMRVPLWTRLKNGQSVEVITAEGQSPQATWLEHHHHHH
soluble on expression in E. coli: not soluble

macromolecule sequence: MGSDKIHHHHHHMAKHPLVMALAKVIIAAAWADGELSLDEVNDLKRLLAELGQTGGQFALTADDWAELEIYLYSPVEAAERARLIADLRDLIITPGQQQLVLQAIERLLIADRVLTPVEREVAQEIQRALTQDSQSLLFQIGRAFRLALGIRAGGPNREDLLPEFMRNRIYYALQIRLGQHIDEFGLDRDELHVLTLAGGLLARVAYVDKQVTPAEHDRIVAILKEWWQLDDTQAALVAEVALDESAASLDFFRLTKAFADATTVERRQRFLDALFAVALADGELSGAESAEISRITAAINLPHDSFVAARLRLPRQPGKRL
soluble on expression in E. coli: not soluble

###

- assay remarks: soluble on expression in E. coli; label from the status in PepcDB or PDB records
readout name: soluble on expression in E. coli

macromolecule sequence: MGSDKIHHHHHHMKLDINICNNIKSIRTRLGMSQQDLANIAGVTRQTISGVESGQYAPSVAITLRLAKALGCQVENLFWLEDDLPEIEAVLAKPVPTGQQLRVSLAKVGGQWIAYPLVGKEAFRMEMIPADGRAESQTHTNKVQVRLLDDLDKLQNTVVIAGCTPVISFLARATERWHPQLRVHYHFANSMAALRSLNRGEVHIAGMHLYDPQTGEHNIPFAREALDGRSAVLITLGIWEEGLVVAPGNPMEIKSLSDLVELEATIINREPGSGSRMLLERKLKEEKVSANTIKGYEHIVHSHQDVALSIAAGIADAGVSTASVAAAFGLGFIPLHQARYDLVILKEYLEEAPVQQFLSILGHRLVQSQLEVLGGYDISDIGEVVATI
value observed: not soluble
--
macromolecule sequence: MVKLENKPTIISTGTIVGPKEGEGPLKDYFDMIMTDDLYGEKTWELAESKMVETASQQAIQKAGKKLSDVNYMLGGDLINQIVPASFAARELAIPFLGIYGACSTMAEGLCIGSMLIDGGFADLVLSGTSSHYCTAERQFRFPLELGNQKPMTAQWTVTGAGSVLLAPNGDGPKVKYVTVGKVIDEGIDDGNNMGPAMAPAAIDTIYSYFEDTNDDPNSFDIIATGDLGTLGKQIAEDFLKEKGVDISKVYTDCGIEMFNLKEQDVHCGGSGCGCSATVFAGYIYDKLRKKEFNKVMLVSTGALLSPTSTLQKQTIPCVAHAVVIVNELEHHHHHH
value observed: not soluble
--
macromolecule sequence: GAMDPAVMKIEYYSQVLDMEWGVNVLYPDANRVEEPECEDIPVLYLLHGMSGNHNSWLKRTNVERLLRGTNLIVVMPNTSNGWYTDTQYGFDYYTALAEELPQVLKRFFPNMTSKREKTFIAGLSMGGYGCFKLALTTNRFSHAASFSGALSFQNFSPESQNLGSPAYWRGVFGEIRDWTTSPYSLESLAKKSDKKTKLWAWCGEQDFLYEANNLAVKNLKKLGFDVTYSHSAGTHEWYYWEKQLEVFLTTLPIDFKLEERLT
value observed: soluble
--
macromolecule sequence: MAGFMKNAMSYLGMSDVVDDEDDYIEEDEEQKPASKSAFDSDHTVTPLASTTAPAASSTTKPFPGGRVNRITTIHPKSYEDAQLVGRALRDGVPVVLNLTGVAEAVAYRIVDFSAGVVFGVRGSLERVTPRVFLLSPAQVNIKVEEPTKPASAHDLFADAAALEHHHHHH
value observed: not soluble
--
macromolecule sequence: MRISAKGRYALAAVISMAQQYNNGEYITVISISEKLGISKIFLEQVFSSLKKAKIVSSTKGVQGGYQLTRTPSQITVLDVLLSVEVSLFEQTQETVSDKAPDIEQALRSSVFDVLDKNIKQTLSTITIADLVAEAEKHKDYNALMFYI
value observed: soluble
--
macromolecule sequence: MAHLKKRNRLKKNEDFQKVFKHGTSVANRQFVLYTLDQPENDELRVGLSVSKKIGNAVMRNRIKRLIRQAFLEEKERLKEKDYIIIARKPASQLTYEETKKSLQHLFRKSSLYKKSSSK
value observed: soluble

###

- assay remarks: soluble on expression in E. coli; label from the status in PepcDB or PDB records

macromolecule sequence: MGSDKIHHHHHHMATENPPIYMVGGSKGGVGKSFVTLALVDYLRRMEVNVVLVETDTSNPDVMKAVHDEIECGSCDLDDVSGWIDFVNFCDLHPDATVVVNTAARSQAGVAQYGGTLASTLDELARRLVVLWVINRQRDSLELLLRFGATFPNAITHVVRNGYFGSPDKFTLYRDSQLRNAVEAQGQSLDFPDLADRVADELRSQRLSVSKAAEMMHMGERAELLRWRAVCGTMFARVTPHA
soluble on expression in E. coli: not soluble
--
macromolecule sequence: CDQFVTDALKTFENTYLNDHLPHDIHKNVMRMVNHEVSSFGVVTSAEDSYLGAVDENTLEQATWSFLKDLKRITDSDLKGELFIKELLWMLRHQKDIFNNLARQFQKEVLCPNKCGVMSQTLIWCLKCEKQLHICRKSLDCGERHIEVHRSEDLVLDCLLS
soluble on expression in E. coli: not soluble

###

- assay remarks: soluble on expression in E. coli; label from the status in PepcDB or PDB records

macromolecule sequence: MTTFTHINSQGEANMVDVSAKAETVREARAEAIVTMSKETLSMIVEGKHHKGDVFATARIAGIQAAKRTWELIPLCHPLLLSKVEVNLEPLLETNQVRIQSLCKLTGKTGVEMEALTAASVAALTIYDMCKAVQKDIVIEHVRLLEKSGGKSGHFIAEEK
soluble on expression in E. coli: soluble
--
macromolecule sequence: MNKLDTSQLKIASMGGGHGLFQTLRAVRQLNPASIDAIVTVADDGGSSGRIRRELGQIPPGDLRMALAALAPFDDEGLQWETLLQHRFGGHGALAGHAVGNLIIAGLCDTLGSEIAALDAVAKVIKAEGRVLPACAEPLEIAAEVSGLDDDPRIMREVIGQVAVASTPGTVRRVRLIPERPEATEESVEAIENADLVTLGPGSWFSSVIPHVLVPGIPTALATTKALRVVVLNLSPEPGETAGFTAERHIHILSQHAQTLRADVILVDEGLIPHKGERVHLERAAAVLGAQISYHDLSETDPSGRRIHRHDPAKLAEALRLQLLEHHHHHH
soluble on expression in E. coli: soluble

###

- assay remarks: soluble on expression in E. coli; label from the status in PepcDB or PDB records

macromolecule sequence: GMQATTATPHDIVFLFDCDNTLLDNDHVLADLRAHMMREFGAQNSARYWEIFETLRTELGYADYLGALQRYRLEQPRDTRLLLMSSFLIDYPFASRVYPGALNALRHLGARGPTVILSDGDVVFQPRKIARSGLWDEVEGRVLIYIHKELMLDQVMECYPARHYVMVDDKLRILAAMKKAWGARLTTVFPRQGHYAFDPKEISSHPPADVTVERIGDLVEMDAEWLLAEKR
soluble on expression in E. coli: soluble

macromolecule sequence: MGPMPKLADRKLCADQECSHPISMAVALQDYMAPDCRFLTIHRGQVVYVFSKLKGRGRLFWGGSVQGDYYGDLAARLGYFPSSIVREDQTLKPGKVDVKTDKWDFYCQ
soluble on expression in E. coli: soluble

###

- assay remarks: soluble on expression in E. coli; label from the status in PepcDB or PDB records

macromolecule sequence: MGSDKIHHHHHHMPRIKDGFKGERAIVLPAFLIEELKQDPLGSELYITDIGYYPHAYFHYRKRDTEEVTEFILIYCMEGEGWFELDKHQYAVTANQFFILPEHQAHAYGSNEENPWTIYWIHFNGTKAAFFSAGFDRPKSITPQEDSRIKERLVLFEEIYSSISFGYSKNYMLYATTSLFHFLGSMKFIGEYRDCGSMRNSYRNKDVVQIAIHFMQENLSKTIRLADIAAEVNLSVSYFSNLFEEKTGSSPLRYLTYLRIQEACHYLDFTNLKINQISPLVGYEDSLYFSRLFTKTMGVPPSAYKEKKKG
soluble on expression in E. coli: not soluble

macromolecule sequence: GDQPVINFGIISTESSQNLKSIWEPFLKDMSQQTGYQVKAFFAPDYAGIIQGMRFDKVDIAWYGNKAAMEAVDRAHGEIFAQTVAASGAPGYWSLLIANKDSKIDSLEDMLANAKSLTFGNGDPNSTSGYLVPGYYVFAKNNVDPVKAFKRTLNSSHEVNALAVANKQVDVATFNTEGMERLELTQPEKARQLKVIWKSPLIPGDPLVWRNNLSDEQKNKLRDFFFKYGANAEQKKVLADLQWSKFQASDDDQLLPIRQLELFKQRTDVANNANLGAEEKAAKLKALDEELAKLEKRMAEREQKTAANAG
soluble on expression in E. coli: soluble

macromolecule sequence: MGSDKIHHHHHHMTDTTIPNPLAPVKGANTTFWMYNSEGDPFASPLSDNNWLRLANVKDLQPGELTADAEDNNYLDDENADWKSTTQGQKSAGDTSVTLAWKPGEDVQKKLIQLFTTGQKRGFRIKYPNGTVDVFRGWVSSLGKTVQSKDEIARTVKITSVGRPYMAEEDAPEVVSVTGLTVEPTNATVKVGATTAVTFTVKPDNVTDKSLRIATSDPTTATVTQAENIATVKGVKAGTVKIIGMTTDGNFTAIADITVQA
soluble on expression in E. coli: not soluble

macromolecule sequence: MSVDYPRDLIGYGSNPPHPHWPGKARIALSFVLNYEEGGERNILHGDKESEAFLSEMVSAQPLQGERNMSMESLYEYGSRAGVWRILKLFKAFDIPLTIFAVAMAAQRHPDVIRAMVAAGHEICSHGYRWIDYQYMDEAQEREHMLEAIRILTELTGERPLGWYTGRTGPNTRRLVMEEGGFLYDCDTYDDDLPYWEPNNPTGKPHLVIPYTLDTNDMRFTQVQGFNKGDDFFEYLKDAFDVLYAEGAEAPKMLSIGLHCRLIGRPARLAALQRFIEYAKSHEQVWFTRRVDIARHWHATHPYTGAAK
soluble on expression in E. coli: soluble

macromolecule sequence: LSLLGVGAASLYVSDSPQPKMAQSQHDTTIDLSSQKDFFEYSLSGLGEHSLEEIQENIEESISQQNSLGIDVELFQTYLAYKRALSKLEPLEDTTLSLSQLQRLNEAILNLQLEYFNDQQISQLFDEENRLRQLAIEKLVIKTYEQDSDSQQLLLNQALSEQPEYIQKSERNNALTRQLDQTELLSSQDKYLARVELVGEEGAQRLQKLDEQRATFEIELTNYLEKRADILNDEFLDSEQKQLEIANLRKQSFETTQWRRIEALERIHDS
soluble on expression in E. coli: not soluble
